# Test name: in vitro
# Condition: human, hela cells, % viability
I'd appreciate it if you could supply viability at 28.5 h, 10 µM values for the items below.

Compound	viability at 28.5 h, 10 µM
CN(C)Cc1c(O)ccc2occ(C(O)c3ccccc3)c12 (centres unmarked)	104%
CCCC/C=C/c1cnc(N)c(Nc2ccc(OC)cc2C)n1	101%
COc1nccc(N2CCN(C(=O)C3CC3)CC(O)C2)c1C#N (centres unmarked)	79.1%
CC1CCN(C(=O)c2cc(-c3ccco3)[nH]n2)CC1	101%

Memo: CC(=O)N1CCN(C(C(=O)O)c2c[nH]c3ccc(NC(=O)C(C)C)cc23)CC1 (centres unmarked) , reported viability at 28.5 h, 10 µM: 89.7%
